This document collects Ki values reported for Melanocortin receptor 3 (Homo sapiens).
// note: answer is a bare numeric in nM

Q. Recorded Ki for O=C(N[C@H](Cc1ccc(Cl)cc1)C(=O)N1CCN(c2cccc3c2CCCC3)CC1)[C@H]1Cc2ccccc2CN1 with Melanocortin receptor 3 (Homo sapiens), please?
A. 1200

Q. Also check CC(=O)N1CCCc2cccc(N3CCN(C(=O)[C@@H](Cc4ccc(Cl)cc4)NC(=O)[C@H]4Cc5ccccc5CN4)CC3)c21
A. 500

----------
biological target: Melanocortin receptor (M3 and M4) (Homo sapiens) (UniProt P32245+P41968); assay: Binding selectivity across hMC 4 and hMC 3 by determining the competitive inhibition of [125 I]NDP MSH binding; type: protein assay
REPORTED METRIC: Binding selectivity
API doc: respond with a numeric literal and nothing else, no unit.

The cases that follow already have their Binding selectivity on record.
CC(=O)N1CCCc2cccc(N3CCN(C(=O)[C@@H](Cc4ccc(Cl)cc4)NC(=O)[C@H]4Cc5ccccc5CN4)CC3)c21	0.6
O=C(N[C@H](Cc1ccc(Cl)cc1)C(=O)N1CCN(c2cccc3c2CCCC3)CC1)[C@H]1Cc2ccccc2CN1	181
O=C(N[C@H](Cc1ccc(Cl)cc1)C(=O)N1CCN(c2cccc3c2CN(S(=O)(=O)c2ccccc2)CC3)CC1)[C@H]1Cc2ccccc2CN1	4

Turning now to a further compound:
Q. If you can, please state the reported Binding selectivity value of CN(C)C1CCc2cccc(N3CCN(C(=O)[C@@H](Cc4ccc(Cl)cc4)NC(=O)[C@H]4Cc5ccccc5CN4)CC3)c2C1 (some centres undefined) .
A. 164
